target: HGFR (c-MET) (Homo sapiens); construct: purchased Upstate 14-526; assay: HGFR continuous-coupled spectrophotometric assay (Ki and % inhibition); type: biochemical; conditions: cells marked "Ki"; read-out: Ki (printed in the Met IC50 column)
Sequence (P08581 25-1390): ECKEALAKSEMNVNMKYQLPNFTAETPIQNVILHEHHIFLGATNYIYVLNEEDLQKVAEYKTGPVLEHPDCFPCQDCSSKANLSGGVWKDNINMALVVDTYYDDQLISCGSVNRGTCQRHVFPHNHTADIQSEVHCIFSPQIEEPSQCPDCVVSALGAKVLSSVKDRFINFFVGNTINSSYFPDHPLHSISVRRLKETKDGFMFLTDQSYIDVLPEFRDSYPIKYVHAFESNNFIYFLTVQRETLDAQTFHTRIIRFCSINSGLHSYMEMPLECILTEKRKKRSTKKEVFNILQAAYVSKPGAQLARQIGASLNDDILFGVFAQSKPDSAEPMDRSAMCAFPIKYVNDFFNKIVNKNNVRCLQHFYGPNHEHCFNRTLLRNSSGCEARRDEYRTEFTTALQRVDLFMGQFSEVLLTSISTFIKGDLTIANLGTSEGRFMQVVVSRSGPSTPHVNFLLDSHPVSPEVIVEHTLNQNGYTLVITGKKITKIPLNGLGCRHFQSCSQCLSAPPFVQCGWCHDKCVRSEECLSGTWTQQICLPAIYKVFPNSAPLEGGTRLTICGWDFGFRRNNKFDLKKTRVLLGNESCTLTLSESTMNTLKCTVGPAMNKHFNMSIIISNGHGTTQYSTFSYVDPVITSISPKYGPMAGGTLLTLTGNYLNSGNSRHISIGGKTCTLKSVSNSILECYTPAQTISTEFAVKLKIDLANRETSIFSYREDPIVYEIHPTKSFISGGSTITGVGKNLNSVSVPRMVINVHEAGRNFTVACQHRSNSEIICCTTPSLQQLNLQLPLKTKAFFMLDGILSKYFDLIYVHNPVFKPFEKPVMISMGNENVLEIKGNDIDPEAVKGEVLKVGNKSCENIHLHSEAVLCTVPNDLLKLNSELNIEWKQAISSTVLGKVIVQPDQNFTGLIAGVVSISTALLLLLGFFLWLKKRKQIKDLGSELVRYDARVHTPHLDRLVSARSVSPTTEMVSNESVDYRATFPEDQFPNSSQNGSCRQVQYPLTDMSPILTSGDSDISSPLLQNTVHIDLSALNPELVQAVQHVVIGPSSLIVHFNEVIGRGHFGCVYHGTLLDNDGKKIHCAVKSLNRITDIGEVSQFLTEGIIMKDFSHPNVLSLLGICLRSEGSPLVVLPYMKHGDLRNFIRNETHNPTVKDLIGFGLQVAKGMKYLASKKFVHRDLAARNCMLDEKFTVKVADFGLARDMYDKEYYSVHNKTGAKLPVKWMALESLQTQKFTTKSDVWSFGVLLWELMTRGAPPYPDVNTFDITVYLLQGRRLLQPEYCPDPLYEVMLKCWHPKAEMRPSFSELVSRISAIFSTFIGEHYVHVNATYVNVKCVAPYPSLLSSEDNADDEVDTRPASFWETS
REPORTED PROPERTY: Ki
# include the unit after the value

Prompt: Requested read-out: Ki. Entry: CC(Oc1cc(-c2ccc(OCC(=O)N3CCN(C(=O)OC(C)(C)C)CC3)cc2)cnc1N)c1c(Cl)ccc(F)c1Cl (stereo not shown)
Response: 16 nM

###

compounds and their reported IC50
biological target: GST fusion protein containing the Met kinase domain (Homo sapiens, UniProt P08581); construct: Purified GST fusion protein containing the Met kinase domain, SUGEN, Inc; assay: MET transphosphorylation assay (ELISA, poly(glu-tyr) substrate); type: biochemical
Your answer is read as nM, so omit the unit and give the number.

CN(C)[C@H]1CCN(C(=O)c2cccc(-c3cnc(N)c(OCc4c(F)ccc(F)c4Cl)n3)c2)C1 ... 1450
CN(C)[C@H]1CCN(C(=O)c2ccc(-c3cnc(N)c(OCc4ccc(F)cc4Cl)c3)cc2)C1 ... 8100

Continue with the compound presented below.
Prompt: Requested read-out: IC50. Entry: Nc1ncc(-c2cccnc2)cc1OCc1c(F)ccc(F)c1Cl
Response: 282
